Just for reference, patent US10058526B2 is where these values come from.

PROTOCOL DESCRIPTION: Diffusion of solvents in a 5.6 W electric diffuser (Example 1)
Type: physicochemical
CONDITION NOTES: 48 ml solvent, average per day over 30 days
Experimental: 48 ml of solvent to be tested are placed in a 5.6 W electric diffuser. The amount of solvent diffused is measured for 30 days following plugging in of the diffuser, and the average diffusion of product per day is calculated and summarized in Table 1 below: […]
Where a name gives a salt, the structure may show the parent alone.

- COMPOUND: "CO[C@H]1CO[C@H]2[C@@H]1OC[C@H]2OC [Isosorbide dimethyl ether]"
  Diffusion of product (g/day): 2
- COMPOUND: "CC(C)CCCCCCOC(=O)CCCCCC(C)C [Isononyl isononanoate]"
  Diffusion of product (g/day): 2
- COMPOUND: "CCCCCCCCCCCCCC(=O)OC(C)C [Isopropyl myristate]"
  Diffusion of product (g/day): 1
- COMPOUND: "CC1COC(=O)O1 (stereo not drawn) [Propylene carbonate]"
  Diffusion of product (g/day): 4
- COMPOUND: "CC(C)OC(=O)CCCCCCCCC(=O)OC(C)C [Diisopropyl sebacate]"
  Diffusion of product (g/day): 1
- COMPOUND: "CCOC(=O)CC(O)(CC(=O)OCC)C(=O)OCC [Triethyl citrate]"
  Diffusion of product (g/day): 1
